System: COLO 205 colon
measurement.protocol: NCI tumour cell line growth inhibition, 48 h
value.type: GI50

1) CC1(C)N=C(N)N=C(N)N1c1cccc(CCCCc2ccc(Cl)c(S(=O)(=O)F)c2)c1 = 1.75 µM
2) COc1ccc(-c2oc3ncnc(N)c3c2-c2ccc(NC(=O)Nc3cc(C(F)(F)F)ccc3F)cc2)cc1 = 0.558 µM

Hi! Can you tell me GI50 for each of these molecules?
1. COc1ccc(-c2c(NC(=O)Nc3ccc(Cl)c(C(F)(F)F)c3)cnn2-c2ccc(S(N)(=O)=O)cc2)cc1
2. CCC(CO)Nc1nc(NCc2ccccc2)c2n[nH]c(C(C)C)c2n1 (stereo unspecified)
3. COc1cc(/C=C2\C(=O)Nc3ccc(Cl)cc32)cc(OC)c1OC
4. Cn1cc(-c2ncnc3ccc(-c4cnc(Cl)c(NS(C)(=O)=O)c4)cc23)c2ccccc21
5. CCCCNC(=O)Oc1ccc(/C(=C(\C)c2ccc(OC)cc2)c2ccc(OCCN3CCCCC3)cc2)cc1
6. FC(F)(F)c1cccc(Oc2ccc(Nc3ncnc4ccc(OCCCN5CCOCC5)cc34)cc2Cl)c1
7. O=C(N/N=C/c1ccc([N+](=O)[O-])cc1)c1ccccc1Nc1ccnc(C(F)(F)F)c1

2.31 µM
4.45 µM
8.01 µM
0.829 µM
2.07 µM
2 µM
18.2 µM

Report GI50 for every entry below.
1. [Mn+3].[O-][Cl+3]([O-])([O-])O.[O-]c1ccccc1C=NCCN1CC1.[O-]c1ccccc1C=NCCN1CC1
2. C[N+]1(CCNP(=S)(NCC[N+]2(C)Cc3c(ccc4c3OCO4)C3C2c2cc4c(cc2C[C@@H]3O)OCO4)NCC[N+]2(C)Cc3c(ccc4c3OCO4)C3C2c2cc4c(cc2C[C@@H]3O)OCO4)Cc2c(ccc3c2OCO3)C2C1c1cc3c(cc1C[C@H]2O)OCO3 (stereo partly specified)

28.9 µM
1.65 µM
